A compilation of published pIC50 results with UniProtKB P22607.
pIC50: −log10 of the molar value.

structure: C=CC(=O)N1CC(F)(C(=O)N2CCN(c3ccc(-c4cnc5ccc(Nc6cc(OC)cc(OC)c6)cc5n4)cn3)CC2)C1
testValue: 6.20

structure: CNC(=O)c1cc(C#N)cc(-c2cnn3cc(-c4cnn(C)c4)c(N[C@H]4CCOC4)nc23)c1
testValue: > 8.00

structure: COc1cc(OC)c(Cl)c(-c2ncc3c(-c4ccc(N5CCN(C)CC5)cc4)n[nH]c3n2)c1Cl
testValue: > 7.00

Proceeding to the next compound to report its pIC50.
Lab note: UniProtKB P22607 assay, enter pIC50 for CCN1Cc2cc(-c3n[nH]c4cc(-c5c(F)c(OC)cc(OC)c5Cl)ncc34)ccc2C1=O here
> 7.00

====

Literature roundup of Fibroblast growth factor receptor 3 (Homo sapiens) data, read-out pIC50.
pIC50: −log10 of the molar value.

compound: O=C(NCC(F)(F)F)Nc1cccc(-c2cnc3cc(-c4cnn(C5CCN(C(=O)CCC6CC6)CC5)c4)cnn23)c1
assayedTarget: Fibroblast growth factor receptor 3 (Homo sapiens)
testValue: > 8.00

compound: CNC(=O)c1cc(C)c(F)c(-c2cnn3cc(-c4cnn(C5CN(C)C5)c4)c(N[C@H]4CCOC4)nc23)c1
assayedTarget: Fibroblast growth factor receptor 3 (Homo sapiens)
testValue: > 8.00

compound: CNC(=O)c1cc(F)c(F)c(-c2cnn3cc(-c4cnn(Cc5cccnc5)c4)c(N[C@H]4CCOC4)nc23)c1
assayedTarget: Fibroblast growth factor receptor 3 (Homo sapiens)
testValue: > 8.00

compound: CNC(=O)c1cc(CCc2cnc(Nc3cnn(CC4CCN(C)CC4)c3)nc2)c(F)c(OC)c1
assayedTarget: Fibroblast growth factor receptor 3 (Homo sapiens)
testValue: 8.15

For Fibroblast growth factor receptor 3 (Homo sapiens), give pIC50 of the listed compound: CNC(=O)c1cncc(-c2cnc3cc(-c4ccc(NC(=O)OC)cc4)c(O[C@H]4CCOC4)nn23)c1
7.00 to 8.00

Enter recorded pIC50 with Fibroblast growth factor receptor 3 (Homo sapiens) for COc1cc(OC)c(F)c(-c2ncc3c(-c4ccc5c(c4)CC(C(=O)N(C)C)O5)n[nH]c3n2)c1F (single isomer, unassigned) here.
> 7.00

Provide the reported pIC50 (system: Fibroblast growth factor receptor 3 (Homo sapiens)) for N#CCC(=O)N1CCC(n2cc(-c3cnn4c(-c5cccc(NC(=O)NCC(F)(F)F)c5)cnc4c3)cn2)CC1
> 8.00

# return pIC50 of CCn1cc(Nc2ncc(CCc3cc(OC)cc(C(=O)NC)c3F)cn2)cn1 (system: Fibroblast growth factor receptor 3 (Homo sapiens))
7.68

Tell me its pIC50 on Fibroblast growth factor receptor 3 (Homo sapiens): O=C(NCC(F)(F)F)Nc1cccc(-c2cnc3cc(-c4cnn(C5CCN(C(=O)C(O)C(F)(F)F)CC5)c4)cnn23)c1 (stereo not drawn)
> 8.00

Report pIC50 from Fibroblast growth factor receptor 3 (Homo sapiens) testing of C[C@H]1O[C@@H](c2ccncc2NC(=O)c2ccc(F)c(-c3c(F)cccc3F)n2)C[C@@H](N)[C@]1(C)O
< 5.00

Provide pIC50, recorded with Fibroblast growth factor receptor 3 (Homo sapiens), of CCN1C(=O)N(c2c(F)c(O)cc(OC)c2F)Cc2cnc3[nH]c(CN4CCOCC4)cc3c21
> 8.00

# lookup: Fibroblast growth factor receptor 3 (Homo sapiens) pIC50, key = COc1cc(OC)c(F)c(-c2ncc3c(-c4ccc5c(c4)CN([C@H]4CC[C@H](O)CC4)C5=O)n[nH]c3n2)c1F
> 7.00

State measured pIC50 of the compound CCN1C(=O)N(c2c(F)c(OC)cc(OC)c2Cl)Cc2cnc3c(c21)CC(=O)N3 with Fibroblast growth factor receptor 3 (Homo sapiens).
> 7.00

Fetch value of pIC50 on Fibroblast growth factor receptor 3 (Homo sapiens) for CONC(=O)c1cc(CCc2cnc(Nc3ccc4nccn4c3)nc2)cc(OC)c1 .
6.95

Enter recorded pIC50 with Fibroblast growth factor receptor 3 (Homo sapiens) for C[C@@]1(O)[C@@H](N)C[C@@H](c2ccncc2NC(=O)c2nc(-c3ccccc3)cnc2N)O[C@H]1C1CC1 here.
5.06

====

A compilation of published IC50 results with Fibroblast growth factor receptor 3 (Homo sapiens, UniProt P22607).

Identify measured IC50 associated with Cc1nc2cc(-n3ncc(C(=O)c4cc5ccc(-c6ccc(N7CCNCC7)nc6)cc5[nH]4)c3N)ccc2[nH]1
≤ 300 nM

Identify measured IC50 corresponding to CC(C)C1C(=O)N(C)CCN1c1ccc2[nH]nc(-c3cnn(C)c3)c2n1 (stereo not shown)
< 10 nM

Fill in IC50 for record C=CC(=O)NCc1cc2c(cn1)CN(c1c(F)c(OC)cc(OC)c1F)C(=O)N2CCC
> 200 nM

Give the reported value of IC50 for this record: COc1cc(OC)c(F)c(N2Cc3cnc(N)c(-c4ccccc4)c3N(C)C2=O)c1F
< 100 nM

====

Published IC50 for Fibroblast growth factor receptor 3 (Homo sapiens, UniProt P22607), assembled from different documents, is shown next.

// below: answered molecules
molecule: COc1cc(OC)c(Cl)c(-c2ccc3c(-c4ccc5c(c4)CN(C4CC4)C5=O)n[nH]c3n2)c1F
assayedTarget: Fibroblast growth factor receptor 3 (Homo sapiens, UniProt P22607)
testValue: < 100 nM
//
molecule: N#CCC(c1ccccc1)n1cc(-c2cnn3c(-c4cccc(NC(=O)NCC(F)(F)F)c4)cnc3c2)cn1 (stereo not shown)
assayedTarget: Fibroblast growth factor receptor 3 (Homo sapiens, UniProt P22607)
testValue: < 10 nM
//
molecule: COc1ccc(-c2cccc3c2/C(=C/c2[nH]c(C)cc2C(=O)NCCN2CCCC2)C(=O)N3)cc1
assayedTarget: Fibroblast growth factor receptor 3 (Homo sapiens, UniProt P22607)
testValue: 790 nM

Consider the molecule O=C(NCC(F)(F)F)Nc1cccc(-n2cnc3cc(-c4cccc(C(=O)NCc5cccnc5)c4)ccc32)c1 tested on Fibroblast growth factor receptor 3 (Homo sapiens, UniProt P22607); state its IC50.
< 10 nM

Give measured IC50 for C=CC(=O)NCc1cc2c(cn1)CN(c1c(F)c(OC)cc(OC)c1F)C(=O)N2CC (Fibroblast growth factor receptor 3 (Homo sapiens, UniProt P22607)).
> 200 nM

System Fibroblast growth factor receptor 3 (Homo sapiens, UniProt P22607). Read-out IC50. Item COCCNc1cc(NC(=O)N(CC2CCOC2)c2cccc(C=O)n2)ncc1C#N (racemic) . Report value.
> 10000 nM

Identify measured IC50 obtained with Fibroblast growth factor receptor 3 (Homo sapiens, UniProt P22607) for C=CC(=O)NCc1cc2c(cn1)CN(c1c(F)c(OC)cc(OC)c1F)C(=O)N2[C@H]1CCOC1 .
> 200 nM

Fill in IC50 for NC(=O)Cn1cc(-c2cnc3ccn4c(C(N)=O)c(-c5c(Cl)cccc5Cl)nc4c3c2)cn1 tested with Fibroblast growth factor receptor 3 (Homo sapiens, UniProt P22607).
< 0.1 nM

Determine reported IC50 for CNC(=O)c1cc(CCc2cnc(Nc3ccc(N4CCNC(C)(C)C4)cc3)nc2)c(Cl)c(OC)c1 ; test system: Fibroblast growth factor receptor 3 (Homo sapiens, UniProt P22607).
6 nM

Send back Fibroblast growth factor receptor 3 (Homo sapiens, UniProt P22607) IC50 of COCCNc1cc(NC(=O)N(C)c2ccc(C(F)F)c(C=O)n2)ncc1C#N only.
> 10000 nM

====

// compounds with IC50 on Fibroblast growth factor receptor 3 (Homo sapiens, UniProt P22607), multi-source literature

Past entries and their recorded results:
compound: COc1cc(OC)c(Cl)c(-c2ncc3c(-c4ccc5c(c4)CCN(C(C)C)C5=O)n[nH]c3n2)c1Cl
assayedTarget: Fibroblast growth factor receptor 3 (Homo sapiens, UniProt P22607)
testValue: < 0.1 µM

compound: N[C@H]1C[C@@H](c2ccncc2NC(=O)c2csc(-c3c(F)cccc3F)n2)O[C@H]2CCC[C@H]21
assayedTarget: Fibroblast growth factor receptor 3 (Homo sapiens, UniProt P22607)
testValue: > 10 µM

compound: Cn1cc(-c2cc3ncc(-c4ccc5cnn(C)c5c4)n3nc2OC2CCOC2)cn1 (stereo not drawn)
assayedTarget: Fibroblast growth factor receptor 3 (Homo sapiens, UniProt P22607)
testValue: 0.1 to 0.4 µM

compound: COc1cc(OC)c(F)c(-c2ncc3c(-c4ccc5c(c4)CCNC5=O)n[nH]c3n2)c1F
assayedTarget: Fibroblast growth factor receptor 3 (Homo sapiens, UniProt P22607)
testValue: < 0.1 µM

compound: N#Cc1cc(Cn2cc(-c3cnc4ccn5c(C(N)=O)c(-c6c(Cl)cccc6Cl)nc5c4c3)cn2)ccn1
assayedTarget: Fibroblast growth factor receptor 3 (Homo sapiens, UniProt P22607)
testValue: < 0.0001 µM

compound: Cn1ccnc1CNC(=O)c1cccc(-c2ccc3c(c2)ncn3-c2cccc(NC(=O)NCC(F)(F)F)c2)c1
assayedTarget: Fibroblast growth factor receptor 3 (Homo sapiens, UniProt P22607)
testValue: < 0.01 µM

compound: COc1cc(OC)c(Cl)c(-c2ncc3c(-c4ccc5c(c4)CCC(C(=O)N(C)C)O5)n[nH]c3n2)c1Cl (stereo not drawn)
assayedTarget: Fibroblast growth factor receptor 3 (Homo sapiens, UniProt P22607)
testValue: < 0.1 µM

compound: Cc1cccc(Cl)c1-c1nc2c3cc(-c4cnn(CC(C)(C)O)c4)cnc3ccn2c1CO
assayedTarget: Fibroblast growth factor receptor 3 (Homo sapiens, UniProt P22607)
testValue: 0.001 to 0.005 µM

# input for lookup
Supply recorded IC50 for COc1cc(OC)c(F)c(N2Cc3cnc(NCCN4CCN(C)CC4)cc3C3(CC3)C2=O)c1F here.
< 0.1 µM
